# TEST_DETAILS: Cytotoxicity against HEK293T cells assessed as reduction in cell viability after 24 hrs by CellTiter-Glo luminescent assay
# Format: cell-based, HEK-293T
# APPLIED_CONDITIONS: human
Listing of recorded CC50 at 24 h by entry.

COMPOUND | CC50 at 24 h
CCCNC(=O)[C@@H]1C[C@H]2CCC[C@@H](C1)[C@@H]2NC(=O)c1cc2sc(-c3ccccc3)nc2n1Cc1ccc(OC)cc1 | > 100 µM
[2H]C([2H])(c1ccc(OC)cc1)n1c(C(=O)N2CCC(C(=O)NCCC)CC2)cc2sc(Br)cc21 | > 100 µM
[2H]C([2H])([2H])C([2H])(NC(=O)C1CCN(C(=O)c2cc3sc(Br)cc3n2Cc2ccc(OC)cc2)CC1)C([2H])([2H])[2H] | > 100 µM
CCCNC(=O)C1CCN(C(=O)c2cc3scnc3n2Cc2ccc(OC)cc2)CC1 | 19.1 µM
CCCNC(=O)C1CCN(C(=O)c2cc(Br)cn2Cc2ccc(OC)cc2)CC1 | 55 µM
CCCNC(=O)C1CCN(C(=O)c2cc3sc(Br)nc3n2Cc2ccc(OC)cc2)CC1 | 36.7 µM
CCCNC(=O)C1CC12CN(C(=O)c1cc3sc(Br)cc3n1Cc1ccc(OC)cc1)C2 (stereo not given) | > 100 µM
CCCNC(=O)C1CCN(C(=O)c2cc3occc3n2Cc2ccc(OC)cc2)CC1 | 37.2 µM
CCCNC(=O)C1CCN(C(=O)c2cc3[nH]cnc3n2Cc2ccc(OC)cc2)CC1 | > 100 µM
CCCNC(=O)C1CCN(C(=O)c2cccn2Cc2ccc(OC)cc2)CC1 | > 100 µM
CCCNC(=O)[C@@H]1C[C@H]2CCC[C@@H](C1)[C@@H]2NC(=O)c1cc2sc(Br)cc2n1Cc1ccc(OC)cc1 | > 100 µM
CCCNC(=O)[C@H]1CC[C@@H](NC(=O)c2cc3sc(Br)cc3n2Cc2ccc(OC)cc2)CC1 | > 100 µM
CCCNC(=O)[C@H]1[C@@H]2CCC[C@H]1CN(C(=O)c1cc3sc(-c4ccccc4)nc3n1Cc1ccc(OC)cc1)C2 | > 100 µM
CCCNC(=O)[C@@H]1[C@@H]2CCC[C@H]1CN(C(=O)c1cc3sc(Br)cc3n1Cc1ccc(OC)cc1)C2 | > 100 µM
CCCNC(=O)[C@H]1[C@@H]2CCC[C@H]1CN(C(=O)c1cc3sc(Br)cc3n1Cc1ccc(OC)cc1)C2 | > 100 µM
CCCNC(=O)[C@@H]1CCCN1C(=O)c1cc2sc(Br)cc2n1Cc1ccc(OC)cc1 | 72.4 µM
CCCNC(=O)C1CCN(C(=O)c2cc3[nH]ccc3n2Cc2ccc(OC)cc2)CC1 | > 100 µM
CCCNC(=O)C1CN(C(=O)c2cc3sc(Br)cc3n2Cc2ccc(OC)cc2)C1 | > 100 µM
CCCNC(=O)C1CCN(C(=O)c2cc3nc(Br)sc3n2Cc2ccc(OC)cc2)CC1 | 46.8 µM
CCCNC(=O)C1CCN(C(=O)c2cc3sc(-c4ccccc4)nc3n2Cc2ccc(OC)cc2)CC1 | 22.9 µM
CCCNC(=O)C1CC12CCN(C(=O)c1cc3sc(Br)cc3n1Cc1ccc(OC)cc1)CC2 (stereo not given) | > 100 µM
CCCNC(=O)C1CC12CCN(C(=O)c1cc3sc(-c4ccccc4)nc3n1Cc1ccc(OC)cc1)CC2 (stereo not given) | > 100 µM
CCCNC(=O)C1CCN(C(=O)c2cc3oc(Br)cc3n2Cc2ccc(OC)cc2)CC1 | 21.9 µM
CCCNC(=O)C1CCN(C(=O)c2cc3sc(Br)cc3n2Cc2ccc(OC)cc2)CC1 | > 100 µM
COc1ccc(Cn2c(C(=O)N3CCC(C(=O)NC(C)C)CC3)cc3sc(Br)cc32)cc1 | > 100 µM
NC(=O)c1ncn([C@@H]2O[C@H](CO)[C@@H](O)[C@H]2O)n1 [RIBAVIRIN] | > 100 µM
CCCNC(=O)C1CCN(C(=O)c2ccc(Br)n2Cc2ccc(OC)cc2)CC1 | > 100 µM
CCCNC(=O)[C@@H]1C[C@H]2CCC[C@@H](C1)[C@@H]2NC(=O)c1cc2sc(Br)nc2n1Cc1ccc(OC)cc1 | > 100 µM
CCCNC(=O)C1CCN(C(=O)c2cc3ccsc3n2Cc2ccc(OC)cc2)CC1 | 23.4 µM
CCCNC(=O)C1CCN(C(=O)c2cc3ncsc3n2Cc2ccc(OC)cc2)CC1 | 42.7 µM
CCCNC(=O)C1CC12CCN(C(=O)c1cc3sc(Br)nc3n1Cc1ccc(OC)cc1)CC2 (stereo not given) | 81.3 µM
CCCNC(=O)C1CCN(C(=O)c2cc3ccccc3n2Cc2ccc(OC)cc2)CC1 | 26 µM
[2H]C([2H])(c1ccc(OC)cc1)n1c(C(=O)N2CCC(C(=O)NC([2H])(C([2H])([2H])[2H])C([2H])([2H])[2H])CC2)cc2sc(Br)cc21 | > 100 µM
CCCNC(=O)C1CCN(C(=O)c2cc3cc(Br)ccc3n2Cc2ccc(OC)cc2)CC1 | > 100 µM
CCCNC(=O)[C@H]1[C@@H]2CCC[C@H]1CN(C(=O)c1cc3sc(Br)nc3n1Cc1ccc(OC)cc1)C2 | 57.5 µM

Data origin, for the record: ChEMBL document CHEMBL4007509
